Target: His-BIR3 (241-356, XIAP) (Homo sapiens (Human), UniProt P98170)
Sequence (P98170 241-356): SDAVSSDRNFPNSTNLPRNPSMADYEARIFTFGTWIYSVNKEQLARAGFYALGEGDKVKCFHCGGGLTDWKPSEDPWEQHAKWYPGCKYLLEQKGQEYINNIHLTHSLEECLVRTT
Assay: XIAP-BIR3/SMAC Homogeneous Time Resolved Fluorescence (HTRF) Assay
Conditions: fluorescein labeled SMAC peptide
pIC50: −log10 of the molar value.
measured-attribute: pIC50

compound="CN[C@@H](C)C(=O)N[C@H](C(=O)N1C[C@@H](NC(=O)c2ccc(C(=O)Nc3ccc4c(c3)CN(C(=O)[C@@H](NC(=O)[C@H](C)NC)C(C)(C)SCC(=O)N3CCOCC3)[C@H](C(=O)N[C@@H]3CCCc5ccccc53)C4)cc2)C[C@H]1C(=O)N[C@@H]1CCCc2ccccc21)C(C)(C)C [Example 61]" measured_result=7.51
compound="CN[C@@H](C)C(=O)N[C@H](C(=O)N1Cc2cc(NC(=O)c3ccc(C(=O)N[C@H]4C[C@@H](C(=O)N[C@@H]5CCCc6ccccc65)N(C(=O)[C@@H](NC(=O)[C@H](C)NC)C(C)(C)C)C4)cc3)ccc2C[C@H]1C(=O)N[C@@H](COC)c1ccccc1)C(C)(C)C [Example 13]" measured_result=7.92
compound="CN[C@@H](C)C(=O)N[C@H](C(=O)N1Cc2cc(C(=O)Nc3ccc4cc(C(=O)N[C@H]5C[C@@H](C(=O)N[C@@H]6CCCc7ccccc76)N(C(=O)[C@@H](NC(=O)[C@H](C)NC)C(C)(C)C)C5)[nH]c4c3)ccc2C[C@H]1C(=O)N[C@@H]1CCCc2ccccc21)C(C)(C)C [Example 24]" measured_result=7.03
